Values compiled from ChEMBL document CHEMBL4257553.

# System: Staphylococcus aureus
# RUN DESCRIPTION: Antibacterial activity against Staphylococcus aureus ATCC 29213 after 24 hrs by microbroth dilution method
# Assay type: functional
# TEST PARAMETERS: ATCC 29213, 24 h
The following compounds are listed with their measured MIC values.

MIC measured on CCOP(=O)(OCC)C(Nc1ncccn1)c1ccc2oc(=O)ccc2c1 (centres undefined) = 128 µg/mL

MIC measured on O=P(O)(O)C(Nc1ncccn1)c1ccc(F)cc1 (centres undefined) = 256 µg/mL

----------
# Test system: Pseudomonas aeruginosa
# RUN DESCRIPTION: Antibacterial activity against Pseudomonas aeruginosa ATCC 27853 after 24 hrs by microbroth dilution method
# Type: functional
# TEST PARAMETERS: ATCC 27853, 24 h
OBSERVED PROPERTY: log10(MIC) (log10 of the value in µg/mL)
On a log10 scale: recorded MIC, unit µg/mL.

Use the examples below as a reference point.
• CCOP(=O)(OCC)C(Nc1ncccn1)c1cn(CC)c2ccccc12 (stereo unspecified) = 2.11
• O=P(O)(O)C(Nc1ncccn1)c1ccc(F)cc1 (stereo unspecified) = 2.11
• CCOP(=O)(OCC)C(Nc1ncccn1)c1ccccc1Cl (stereo unspecified) = 2.11
• CCn1cc(C(=O)O)c(=O)c2cc(F)c(N3CCNCC3)cc21 = -0.30
• CCOP(=O)(OCC)C(Nc1ncccn1)c1ccc(Cl)cc1 (stereo unspecified) = 0.90

log10(MIC) measured on CCOP(=O)(OCC)C(Nc1ncccn1)c1ccc([N+](=O)[O-])cc1 (stereo unspecified) = 1.20

log10(MIC) measured on Cc1ccc(C(Nc2ncccn2)P(=O)(O)O)cc1 (stereo unspecified) = 2.41

log10(MIC) measured on O=[N+]([O-])c1ccc(C(Nc2ncccn2)P(=O)(O)O)cc1 (stereo unspecified) = 2.41

log10(MIC) measured on CCOP(=O)(OCC)C(Nc1ncccn1)c1ccc(C)cc1 (stereo unspecified) = 1.81

log10(MIC) measured on C#CCn1c(CCCC)nc(Cl)c1C(Nc1ncccn1)P(=O)(OCC)OCC (stereo unspecified) = 2.41

log10(MIC) measured on CCCCc1nc(Cl)c(C(Nc2ncccn2)P(=O)(OCC)OCC)n1CCC (stereo unspecified) = 2.11

----------
# System: Acinetobacter baumannii
# RUN DESCRIPTION: Antibacterial activity against Acinetobacter baumannii after 24 hrs by microbroth dilution method
# Format: functional
The following compounds are listed with their measured MIC values.

Use the examples below as a reference point.
• CCCCc1nc(Cl)c(C(Nc2ncccn2)P(=O)(OCC)OCC)n1CC (stereo unspecified) = 256 µg/mL
• C#CCn1c(CCCC)nc(Cl)c1C(Nc1ncccn1)P(=O)(OCC)OCC (stereo unspecified) = 128 µg/mL
• CCOP(=O)(OCC)C(Nc1ncccn1)c1ccccc1Cl (stereo unspecified) = 128 µg/mL
• CCCCc1nc(Cl)c(C(Nc2ncccn2)P(=O)(OCC)OCC)n1CCC (stereo unspecified) = 64 µg/mL
• CCCCCn1c(CCCC)nc(Cl)c1C(Nc1ncccn1)P(=O)(OCC)OCC (stereo unspecified) = 32 µg/mL

# value of MIC, Acinetobacter baumannii, item O=[N+]([O-])c1ccc(C(Nc2ncccn2)P(=O)(O)O)cc1 (stereo unspecified) = 256 µg/mL

# value of MIC, Acinetobacter baumannii, item CCOP(=O)(OCC)C(Nc1ncccn1)c1ccc2c(c1)c1cc(C=O)ccc1n2CC (stereo unspecified) = 128 µg/mL

# value of MIC, Acinetobacter baumannii, item CCOP(=O)(OCC)C(Nc1ncccn1)c1ccc(C)cc1 (stereo unspecified) = 128 µg/mL

# value of MIC, Acinetobacter baumannii, item CCOP(=O)(OCC)C(Nc1ncccn1)c1ccc(OC)cc1 (stereo unspecified) = 128 µg/mL

# value of MIC, Acinetobacter baumannii, item CCOP(=O)(OCC)C(Nc1ncccn1)c1ccc(Cl)cc1Cl (stereo unspecified) = 64 µg/mL

# value of MIC, Acinetobacter baumannii, item CCOP(=O)(OCC)C(Nc1ncccn1)c1c[nH]c2ccccc12 (stereo unspecified) = 128 µg/mL
